- Target System: Bromodomain testis-specific protein [44-116] (UniProt Q58F21)
- Construct: 44-116
- Protocol Text: AlphaScreen Assay
Property Label: IC50 (µM)
Give bare numbers, in µM.

Record Cc1cc(N)ccc1-c1nn(C)c2ccc(-c3cncnc3)cc12 [US20240158355, Compound 76] , field IC50: 5.44

Entry source: BindingDB's records for patent US20240158355
